From: patent US20220144922A1

- System: RSV F protein of subtype B strain 18537, on virus (respiratory syncytial virus subtype B …, UniProt P13843 26-574)
- Sequence (P13843 26-574): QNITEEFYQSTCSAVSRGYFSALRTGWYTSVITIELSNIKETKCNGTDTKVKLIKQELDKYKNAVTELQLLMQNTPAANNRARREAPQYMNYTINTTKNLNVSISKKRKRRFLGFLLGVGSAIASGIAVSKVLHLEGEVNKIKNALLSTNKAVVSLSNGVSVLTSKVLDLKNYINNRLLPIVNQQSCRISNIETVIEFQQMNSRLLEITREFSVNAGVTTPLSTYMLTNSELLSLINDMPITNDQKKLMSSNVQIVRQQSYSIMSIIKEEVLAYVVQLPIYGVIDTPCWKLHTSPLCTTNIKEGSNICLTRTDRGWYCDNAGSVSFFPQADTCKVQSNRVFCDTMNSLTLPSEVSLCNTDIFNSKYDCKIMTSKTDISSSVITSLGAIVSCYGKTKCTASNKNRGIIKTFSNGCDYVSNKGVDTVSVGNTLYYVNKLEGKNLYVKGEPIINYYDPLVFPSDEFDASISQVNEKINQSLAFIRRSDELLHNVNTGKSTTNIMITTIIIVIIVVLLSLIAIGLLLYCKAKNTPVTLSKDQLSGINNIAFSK
- Protocol notes: cell-based or functional assay
Test readout: Neut IC50 (ug/ml) subtype B (µg/mL)
Field format: number, assumed µg/mL, no unit text.

ADI-15603 (antibody, V domains shown, IgG) VH: QVQLVQSGGGLVQPGGSLRLSCAASGFTFGRHAMTWVRQAPGKGLEWVAGITATGDPTYYPDSVKGRFAVSRDNSRNTLYLQMDSLRVEDTALYYCARSWDDYGDLDWYFALWGRGTMVTVSS VL: EIVMTQSPAILSVSPGERATLSCRASQSVSSSLAWYQQKPGQAPRLLIYGASTRATGIPPRFSGSGSGTQFTLTISSLQSEDVAVYYCQQYSDWPPLTFGGGTKVEIK yielded Neut IC50 (ug/ml) subtype B of 0.273
